# assayed_target: E35D↑G↑S mutant HIV-1 subtype C protease (Human immunodeficiency virus type 1 group M subtype C, UniProt Q994Q3, D118E/E93D/I94G/INS93GS)
# procedure_summary: biochemical
readout_type: Ki

> print(dat)
                                   compound  readout.type  reported.result
1  COC(=O)N[C@H](C(=O)N[C@@H](Cc1ccccc1)[C@@H](O)CN(Cc1ccc(-c2ccccn2)cc1)NC(=O)[C@@H](NC(=O)OC)C(C)(C)C)C(C)(C)C            Ki           145 nM

Sure, the documented Ki for `Cc1c(O)cccc1C(=O)N[C@@H](CSc1ccccc1)[C@H](O)CN1C[C@H]2CCCC[C@H]2C[C@H]1C(=O)NC(C)(C)C` is 174 nM

###

Entries and their measured ΔΔH follow.
# assayed_target: E35D↑G↑S mutant HIV-1 subtype C protease (Human immunodeficiency virus type 1 group M subtype C, UniProt Q994Q3, D118E/E93D/I94G/INS93GS)
# condition_context: mutant-wild type

Past entries and their recorded results:
> print(dat)
                                   compound  readout.type  reported.result
1  CC(C)CN(C[C@@H](O)[C@H](Cc1ccccc1)NC(=O)O[C@H]1CCOC1)S(=O)(=O)c1ccc(N)cc1           ΔΔH       12.9 ± 0.8
2  Cc1cccc(C)c1OCC(=O)N[C@@H](Cc1ccccc1)[C@@H](O)C[C@H](Cc1ccccc1)NC(=O)[C@H](C(C)C)N1CCCNC1=O           ΔΔH      −13.1 ± 0.9
3  CC(C)CN(C[C@@H](O)[C@H](Cc1ccccc1)NC(=O)O[C@H]1CO[C@H]2OCC[C@H]21)S(=O)(=O)c1ccc(N)cc1           ΔΔH        2.1 ± 0.0
4  CC(C)c1nc(CN(C)C(=O)N[C@H](C(=O)N[C@@H](Cc2ccccc2)C[C@H](O)[C@H](Cc2ccccc2)NC(=O)OCc2cncs2)C(C)C)cs1           ΔΔH        6.8 ± 0.1

Sure, the documented ΔΔH for `COC(=O)N[C@H](C(=O)N[C@@H](Cc1ccccc1)[C@@H](O)CN(Cc1ccc(-c2ccccn2)cc1)NC(=O)[C@@H](NC(=O)OC)C(C)(C)C)C(C)(C)C` is 3.1 ± 0.1

Sure, the documented ΔΔH for `CC(C)(C)NC(=O)[C@@H]1C[C@@H]2CCCC[C@@H]2CN1C[C@@H](O)[C@H](Cc1ccccc1)NC(=O)[C@H](CC(N)=O)NC(=O)c1ccc2ccccc2n1` is 2.9 ± 0.1

Sure, the documented ΔΔH for `CCC[C@@]1(CCc2ccccc2)CC(O)=C([C@H](CC)c2cccc(NS(=O)(=O)c3ccc(C(F)(F)F)cn3)c2)C(=O)O1` is 3.2 ± 0.2

Sure, the documented ΔΔH for `Cc1c(O)cccc1C(=O)N[C@@H](CSc1ccccc1)[C@H](O)CN1C[C@H]2CCCC[C@H]2C[C@H]1C(=O)NC(C)(C)C` is 2.3 ± 0.0

Sure, the documented ΔΔH for `CC(C)(C)NC(=O)[C@@H]1CN(Cc2cccnc2)CCN1C[C@@H](O)C[C@@H](Cc1ccccc1)C(=O)N[C@H]1c2ccccc2C[C@H]1O` is −0.1 ± 0.0

Origin of the recorded values: paper PMC6713120
